target: T1, extracellular tau in the form of paired helical filaments (ePHF tau) (UniProt P10636-8 1-441, limits assumed); assay: ePHF tau ELISA, ePHF coated; antibody at 2.1 ng/ml; anti-mouse-HRP
T1 construct: Aggregated, hyperphosphorylated tau preparation; not a single defined polypeptide
T1 sequence (P10636 other isoform, or with tags, fused parts or gaps limits assumed): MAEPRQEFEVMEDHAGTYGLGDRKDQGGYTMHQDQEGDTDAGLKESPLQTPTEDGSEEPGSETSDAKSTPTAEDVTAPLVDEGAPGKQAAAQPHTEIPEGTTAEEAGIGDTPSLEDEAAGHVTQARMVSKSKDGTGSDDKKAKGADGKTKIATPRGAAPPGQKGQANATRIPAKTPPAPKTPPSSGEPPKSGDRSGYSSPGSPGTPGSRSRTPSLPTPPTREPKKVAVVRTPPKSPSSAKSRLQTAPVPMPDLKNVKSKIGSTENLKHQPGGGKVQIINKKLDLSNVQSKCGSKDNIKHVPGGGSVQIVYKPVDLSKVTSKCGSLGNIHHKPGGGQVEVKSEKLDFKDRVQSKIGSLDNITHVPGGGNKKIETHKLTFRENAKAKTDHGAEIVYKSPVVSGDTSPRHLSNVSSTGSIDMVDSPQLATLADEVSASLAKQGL
test.readout: OD450

Here's what some known entries look like.
binder="anti-tau antibody MC1 expressed from viral genome construct MC1HF.P2AL (TAU_ITR73; SEQ ID NO: 2062) (antibody, V domains shown) VH: QVQLQQSGAELMKPGASVKISCKATGYTFSNYWIEWVKQRPGHGLEWIGEILPGSDSIKYNENFKGKATFTADTSSNTAYMQLSSLTSEDSAVYYCARRGNYPDYWGQGTTLTVSS VL: DVVMTQTPLSLPVSLGDQASISCRSSQSLVHSNGNTYLHWYLQKPGQSPKLLIYKVSNRFSGVPDRFSGSGSGTDFTLKISRVEAEDLGVYFCSQSTHVPLTFGAGTKLELKR" test_readout=OD450 observed_result="0.1 OD450"
binder="anti-tau antibody MC1 expressed from viral genome construct MC1LP2AH (TAU_ITR82; SEQ ID NO: 2071) (antibody, V domains shown) VH: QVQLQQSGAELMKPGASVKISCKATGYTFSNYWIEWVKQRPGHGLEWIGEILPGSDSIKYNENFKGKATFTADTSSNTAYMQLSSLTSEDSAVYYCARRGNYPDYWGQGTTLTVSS VL: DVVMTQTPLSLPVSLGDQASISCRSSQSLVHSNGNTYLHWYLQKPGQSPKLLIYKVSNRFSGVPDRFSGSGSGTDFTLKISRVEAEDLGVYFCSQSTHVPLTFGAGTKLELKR" test_readout=OD450 observed_result="0.1 OD450"

Here is another binder to look at.
Exercise: Can you share its OD450? I mean this binder: anti-tau antibody MC1 expressed from viral genome construct MC1LF2AH (TAU_ITR79; SEQ ID NO: 2068) (antibody, V domains shown) VH: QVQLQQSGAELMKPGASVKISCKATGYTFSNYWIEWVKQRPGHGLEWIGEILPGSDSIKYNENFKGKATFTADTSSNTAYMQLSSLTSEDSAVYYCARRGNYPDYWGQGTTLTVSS VL: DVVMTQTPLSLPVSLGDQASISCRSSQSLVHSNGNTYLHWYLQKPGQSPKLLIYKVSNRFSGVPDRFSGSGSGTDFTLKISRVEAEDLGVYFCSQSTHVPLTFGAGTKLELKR
Key: 0.1 OD450
